Biological target: V1a receptors (Rattus norvegicus (Rat), UniProt P30560)
Sequence (P30560 whole entry): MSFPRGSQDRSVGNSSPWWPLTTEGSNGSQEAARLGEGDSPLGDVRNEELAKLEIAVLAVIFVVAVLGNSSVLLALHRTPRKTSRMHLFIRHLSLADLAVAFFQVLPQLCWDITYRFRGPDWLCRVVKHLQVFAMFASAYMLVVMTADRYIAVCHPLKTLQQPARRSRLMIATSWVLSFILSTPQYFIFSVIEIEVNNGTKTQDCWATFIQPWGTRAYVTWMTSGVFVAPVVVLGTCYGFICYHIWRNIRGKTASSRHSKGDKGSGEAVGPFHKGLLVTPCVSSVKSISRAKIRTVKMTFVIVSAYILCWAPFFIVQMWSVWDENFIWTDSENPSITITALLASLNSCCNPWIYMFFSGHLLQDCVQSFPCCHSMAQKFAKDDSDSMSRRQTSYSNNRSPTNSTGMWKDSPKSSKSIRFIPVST
Test: Arginine-Vasopressin (AVP) induced phospho-Erk measurement in rat choroid plexus (RCP) cells
Type: cell-based
Conditions: study 1, read-out: IC50, AVP induced pERK1/2 to total ERK1/2
# IC50 per entry
reported_metric: IC50

> print(dat)
                                   compound   result
1  CN1Cc2cc(Cl)ccc2-n2c(nnc2[C@H]2CC[C@H](Oc3ccccn3)CC2)C1 [balovaptan, reference compound]  85.6 nM
2  COC(=O)N1Cc2cc(Cl)ccc2-n2c(C3CC4(C3)CN(c3ccc(F)cn3)C4)nnc2C1C (single isomer, unassigned) [142A]    16 nM

---

# pIC50 per entry
Target: human Oxytocin Receptor (hOTR) (Homo sapiens (Human))
Assay: Oxytocin receptor antagonist assay (oxytocin-evoked calcium, FLIPR, CHEM-1-hOTR cells)
Assay type: cell-based
Settings: read-out: OT IC50
pIC50: −log10 of the molar value.
reported_metric: pIC50

> print(dat)
                                    compound  reported.metric        result
 1  CC(C)N1Cc2cc(Cl)ccc2-n2c(nnc2C2CC3(C2)CN(c2ncccc2F)C3)C1            pIC50        < 6.00
 2  CC(=O)N1Cc2cc(Cl)ccc2-n2c(nnc2C2CC3(C2)CN(c2cccc(C#N)n2)C3)C1            pIC50        < 6.00
 3  COC(=O)N1Cc2cc(Cl)ccc2-n2c(nnc2C2CC3(C2)CN(c2cccc(C#N)n2)C3)C1            pIC50  6.00 to 6.30
 4  CCC(=O)N1Cc2cc(Cl)ccc2-n2c(nnc2C2CC3(C2)CN(c2cccc(F)n2)C3)C1            pIC50        < 6.00
 5  COC(=O)N1Cc2cc(Cl)ccc2-n2c(nnc2C2CC3(C2)CN(c2ccc(F)cn2)C3)C1            pIC50  6.00 to 6.30
 6  CC(=O)N1Cc2cc(Cl)ccc2-n2c(nnc2C2CC3(C2)CN(c2ccccn2)C3)C1            pIC50        < 6.00
 7  COC(=O)N1Cc2cc(Cl)ccc2-n2c(C3CC4(C3)CN(c3ncc(F)cn3)C4)nnc2C1C (stereo not drawn) [compound 170]            pIC50        < 6.00
 8  CC1c2nnc(C3CC4(C3)CN(c3ncccn3)C4)n2-c2ccc(Cl)cc2CN1C(=O)OC1CC1 (single isomer, unassigned) [Cpd 171B]            pIC50        < 6.00
 9  CC(CF)OC(=O)N1Cc2cc(Cl)ccc2-n2c(nnc2C2CC3(C2)CN(c2ccc(F)cn2)C3)C1 (stereo not drawn)            pIC50  6.30 to 7.00
10  O=C(C1CC1)N1CC2(CC(c3nnc4n3-c3ccc(Cl)cc3CN(C(=O)C3(F)CC3)C4)C2)C1            pIC50        < 6.00
11  CC(C)OC(=O)N1Cc2cc(Cl)ccc2-n2c(C3CC4(C3)CN(c3ncccn3)C4)nnc2C1C (stereo not drawn) [compound 167]            pIC50        < 6.00
12  O=C(N1Cc2cc(Cl)ccc2-c2c(C3CC4(C3)CN(c3cccnn3)C4)noc2C1)C(F)(F)F            pIC50  6.30 to 7.00
13  CCOC(=O)N1Cc2cc(Cl)ccc2-n2c(C3CC4(C3)CN(c3ccc(F)cn3)C4)nnc2C1C (stereo not drawn) [compound 169]            pIC50  6.30 to 7.00
14  CC(=O)N1CC2(CC(c3nnc4n3-c3ccc(Cl)cc3CN(C)C4)C2)C1            pIC50        < 6.00
15  CCOC(=O)N1Cc2cc(Cl)ccc2-n2c(C3CC4(C3)CN(c3ccc(F)cn3)C4)nnc2C1C (single isomer, unassigned) [Cpd 169A]            pIC50  6.30 to 7.00

---

Target: human Oxytocin Receptor (hOTR) (Homo sapiens (Human), UniProt P30559)
Sequence (P30559 whole entry): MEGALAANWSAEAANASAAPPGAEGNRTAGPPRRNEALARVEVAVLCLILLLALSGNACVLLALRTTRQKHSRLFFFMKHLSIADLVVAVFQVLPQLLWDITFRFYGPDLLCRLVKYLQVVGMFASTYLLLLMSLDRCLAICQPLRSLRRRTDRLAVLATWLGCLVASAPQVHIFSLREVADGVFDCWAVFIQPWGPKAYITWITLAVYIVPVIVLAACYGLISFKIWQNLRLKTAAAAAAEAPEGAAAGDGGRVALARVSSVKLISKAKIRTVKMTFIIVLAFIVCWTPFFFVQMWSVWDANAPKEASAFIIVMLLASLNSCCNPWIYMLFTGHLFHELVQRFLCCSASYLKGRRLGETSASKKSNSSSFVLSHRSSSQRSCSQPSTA
Experiment: Oxytocin receptor antagonist assay (oxytocin-evoked calcium, FLIPR, CHEM-1-hOTR cells)
Assay type: cell-based
Settings: read-out: OT IC50
# IC50 per entry
reported_metric: IC50

> print(dat)
                                   compound                          target.or.system          result
1  CC1c2nnc(C3CC4(C3)CN(c3ccc(F)cn3)C4)n2-c2ccc(Cl)cc2CN1C(=O)C1(F)CC1 (stereo not shown) [compound 174]  human Oxytocin Receptor (hOTR) (Homo sapiens (Human), UniProt P30559)  500 to 1000 nM
2  CC1c2nnc(C3CC4(C3)CN(c3cnccn3)C4)n2-c2ccc(Cl)cc2CN1C(=O)C1(F)CC1 (stereo not shown)  human Oxytocin Receptor (hOTR) (Homo sapiens (Human), UniProt P30559)       > 1000 nM
3  COC(=O)N1Cc2cc(Cl)ccc2-n2c(nnc2C2CC3(C2)CN(c2ccccn2)C3)C1  human Oxytocin Receptor (hOTR) (Homo sapiens (Human), UniProt P30559)  500 to 1000 nM
4  CCC(=O)N1Cc2cc(Cl)ccc2-n2c(nnc2C2CC3(C2)CN(C(=O)C2CCC2)C3)C1  human Oxytocin Receptor (hOTR) (Homo sapiens (Human), UniProt P30559)       > 1000 nM

---

Target: human Arginine Vasopressin Receptor 1a (AVPR1a) (Homo sapiens (Human))
Sequence (P37288 whole entry): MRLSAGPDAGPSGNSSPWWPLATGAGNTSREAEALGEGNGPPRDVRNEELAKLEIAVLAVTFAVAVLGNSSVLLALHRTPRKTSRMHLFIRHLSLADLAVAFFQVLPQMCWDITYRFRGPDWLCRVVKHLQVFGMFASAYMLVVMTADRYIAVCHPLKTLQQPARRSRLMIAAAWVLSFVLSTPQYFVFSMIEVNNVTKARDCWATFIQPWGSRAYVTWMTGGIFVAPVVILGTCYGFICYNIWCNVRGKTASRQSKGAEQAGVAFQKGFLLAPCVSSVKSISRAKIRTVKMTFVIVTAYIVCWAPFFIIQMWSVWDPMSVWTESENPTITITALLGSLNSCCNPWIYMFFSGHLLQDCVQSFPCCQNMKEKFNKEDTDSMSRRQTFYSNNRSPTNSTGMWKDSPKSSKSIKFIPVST
Assay: Vasopressin V1A receptor antagonist assay (AVP-evoked calcium, FLIPR, CHO-AVPR1a cells)
Format: cell-based
Details: read-out: V1a IC50
pIC50: −log10 of the molar value.
# pIC50 per entry
reported_metric: pIC50

> print(dat)
                                    molecule  reported.metric        result
 1  CN1Cc2cc(Cl)ccc2-n2c(nnc2C2CC3(C2)CN(C(=O)C2COC2)C3)C1            pIC50        < 6.00
 2  CC1c2nnc(C3CC4(C3)CN(c3ccccn3)C4)n2-c2ccc(Cl)cc2CN1C(=O)C1(F)CC1 (single isomer, unassigned) [Cpd 181B]            pIC50  6.30 to 7.00
 3  CCN1Cc2cc(Cl)ccc2-n2c(nnc2C2CC3(C2)CN(c2cnccn2)C3)C1            pIC50        > 7.00
 4  CCN1Cc2cc(Cl)ccc2-n2c(nnc2C2CC3(C2)CN(c2ccc(F)cn2)C3)C1            pIC50        > 7.00
 5  CC(C)(C)OC(=O)N1Cc2cc(Cl)ccc2-n2c(nnc2C2CC3(C2)CN(c2ccccn2)C3)C1            pIC50        > 7.00
 6  CC(C)OC(=O)N1Cc2cc(Cl)ccc2-n2c(C3CC4(C3)CN(c3ncccn3)C4)nnc2C1C (single isomer, unassigned) [Cpd 167A]            pIC50  6.30 to 7.00
 7  CC(C)OC(=O)N1Cc2cc(Cl)ccc2-n2c(C3CC4(C3)CN(c3ncc(F)cn3)C4)nnc2C1C (single isomer, unassigned) [Cpd 201A]            pIC50        > 7.00
 8  COCCN1Cc2cc(Cl)ccc2-n2c(nnc2C2CC3(C2)CN(c2cnccn2)C3)C1            pIC50        > 7.00
 9  O=C(NC1CC1)N1Cc2cc(Cl)ccc2-n2c(nnc2C2CC3(C2)CN(c2ccc(F)cn2)C3)C1            pIC50        > 7.00
10  CC1c2nnc(C3CC4(C3)CN(c3ncc(F)cn3)C4)n2-c2ccc(Cl)cc2CN1C(=O)OC1(C)CC1 (stereo not drawn)            pIC50        > 7.00
11  COC(=O)N1Cc2cc(Cl)ccc2-n2c(C3CC4(C3)CN(c3ccncn3)C4)nnc2C1C (stereo not drawn) [compound 184]            pIC50  6.30 to 7.00
12  CCOC(=O)N1Cc2cc(Cl)ccc2-n2c(C3CC4(C3)CN(c3ccc(F)cn3)C4)nnc2C1C (stereo not drawn) [compound 169]            pIC50        > 7.00
13  Clc1ccc2c(c1)CN(C1CCC1)Cc1nnc(C3CC4(C3)CN(c3ccccn3)C4)n1-2            pIC50        > 7.00
14  FCCN1Cc2cc(Cl)ccc2-n2c(nnc2C2CC3(C2)CN(c2ccccn2)C3)C1            pIC50        > 7.00
15  Cc1cc(N2CC3(CC(c4nnc5n4-c4ccc(Cl)cc4CN(C)C5)C3)C2)ncc1F            pIC50        > 7.00
16  CN1Cc2cc(Cl)ccc2-n2c(nnc2C2CC3(C2)CN(C(=O)C2CCO2)C3)C1 (stereo not drawn)            pIC50        < 6.00
17  Cc1nc(N2CC3(CC(c4nnc5n4-c4ccc(Cl)cc4CN(C)C5)C3)C2)ccc1F            pIC50        > 7.00
18  COC(=O)N1Cc2cc(Cl)ccc2-n2c(nnc2C2CC3(C2)CN(c2ccccn2)C3)C1            pIC50        > 7.00
19  CC1c2nnc(C3CC4(C3)CN(c3ncccn3)C4)n2-c2ccc(Cl)cc2CN1C(=O)OC1CC1 (single isomer, unassigned) [Cpd 171A]            pIC50        > 7.00
20  COC(=O)N1Cc2cc(Cl)ccc2-n2c(C3CC4(C3)CN(c3ncc(F)cn3)C4)nnc2C1C (single isomer, unassigned) [Cpd 170B]            pIC50  6.00 to 6.30
21  COC(=O)N1Cc2cc(Cl)ccc2-n2c(C3CC4(C3)CN(c3cccc(C)n3)C4)nnc2C1C (stereo not drawn)            pIC50        > 7.00
22  CN1Cc2cc(Cl)ccc2-n2c(nnc2C2CC3(C2)CN(C(=O)C2CC2)C3)C1            pIC50        > 7.00
23  COC(=O)N1Cc2cc(Cl)ccc2-n2c(C3CC4(C3)CN(c3ncccn3)C4)nnc2C12CC2            pIC50        > 7.00
24  CN1Cc2cc(Cl)ccc2-n2c(nnc2C2CC3(C2)CN(c2ncc(F)cn2)C3)C1            pIC50        > 7.00
25  CC1c2nnc(C3CC4(C3)CN(c3ncccn3)C4)n2-c2ccc(Cl)cc2CN1C(=O)OC(CF)CF (single isomer, unassigned) [Cpd 202B]            pIC50        < 6.00
26  COCCN1Cc2cc(Cl)ccc2-n2c(nnc2C2CC3(C2)CN(c2ncccc2F)C3)C1            pIC50        > 7.00
27  Clc1ccc2c(c1)CN(C1COC1)Cc1nnc(C3CC4(C3)CN(c3ccccn3)C4)n1-2            pIC50        > 7.00
28  CCC(=O)N1Cc2cc(Cl)ccc2-n2c(nnc2C2CC3(C2)CN(c2ccc(F)nn2)C3)C1            pIC50        > 7.00
29  CC1c2nnc(C3CC4(C3)CN(c3ncccn3)C4)n2-c2ccc(Cl)cc2CN1C(=O)OC1CC1 (stereo not drawn) [compound 171]            pIC50        > 7.00
30  CCOC(=O)N1Cc2cc(Cl)ccc2-n2c(C3CC4(C3)CN(c3nccc(C(F)F)n3)C4)nnc2C1C (stereo not drawn)            pIC50        > 7.00
